I'd appreciate it if you could supply viability, T/C values for the items below.
System: 945468-187-T-J2-PDC spheroids viability;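 also: spheroids exposed to compounds for seven days before reading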
method.summary: Anticancer human tumor 945468-187-T-J2-PDC patient-derived rectal carcinoma cell line growth inhibition [PI3K]
experimental.parameters: second compound 0.1 µM; first compound 0.0316 µM; active compounds read low; spheroids with HUVEC and MSC
Give bare numbers, in %.

Illustrative cases are given below, each with its answer.
| compound | viability, T/C, % |
| --- | --- |
| Cn1nccc1Nc1nccc(-c2ccn(C(CO)c3ccc(Cl)c(F)c3)c(=O)c2)n1 (configuration not stated) + Cc1nc(NC(=O)N2CCCC2C(N)=O)sc1-c1ccnc(C(C)(C)C(F)(F)F)c1 | 112 |
| C#Cc1c(F)ccc2cc(O)cc(-c3ncc4c(N5CC6CCC(C5)N6)nc(OCC56CCCN5CC(F)C6)nc4c3F)c12 (configuration not stated) + Cc1nc(NC(=O)N2CCCC2C(N)=O)sc1-c1ccnc(C(C)(C)C(F)(F)F)c1 | 125 |
| C=CC(=O)N1CCN(c2nc(=O)n(-c3c(C)ccnc3C(C)C)c3nc(-c4c(O)cccc4F)c(F)cc23)C(C)C1 (configuration not stated) + CC(Nc1ncnc2nc[nH]c12)c1cc2cccc(Cl)c2c(=O)n1-c1ccccc1 | 97.5 |
| CC(C)NCC(C(=O)N1CCN(c2ncnc3c2C(C)CC3O)CC1)c1ccc(Cl)cc1 (configuration not stated) + Cc1nc(NC(=O)N2CCCC2C(N)=O)sc1-c1ccnc(C(C)(C)C(F)(F)F)c1 | 111 |

Please go through the list and note viability, T/C for each compound.
1. CC1(C)CCC(Nc2ncc(C(F)(F)F)c(-c3c[nH]c4c(P(C)(C)=O)c(C#N)ccc34)n2)CN1 (configuration not stated) + Cc1nc(NC(=O)N2CCCC2C(N)=O)sc1-c1ccnc(C(C)(C)C(F)(F)F)c1
2. C#Cc1c(F)ccc2cc(O)cc(-c3ncc4c(N5CC6CCC(C5)N6)nc(OCC56CCCN5CC(F)C6)nc4c3F)c12 (configuration not stated) + CC(Nc1ncnc2nc[nH]c12)c1cc2cccc(Cl)c2c(=O)n1-c1ccccc1
3. CCCS(=O)(=O)Nc1ccc(F)c(C(=O)c2c[nH]c3ncc(-c4ccc(Cl)cc4)cc23)c1F + CC(Nc1ncnc2nc[nH]c12)c1cc2cccc(Cl)c2c(=O)n1-c1ccccc1

*A*
[87, 111, 132]
